B1: CPEB3 Ribozyme (parent)
chain: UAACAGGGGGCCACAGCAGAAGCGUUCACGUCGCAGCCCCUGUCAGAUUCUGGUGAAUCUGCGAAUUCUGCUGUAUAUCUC

variants of: B1; assay: self-cleavage, relative activity (ratio to wild type); higher = more cleavage; in vitro, sequencing
Label met when self-cleavage is at or above 0.5; otherwise label not met.

[
  {
    "VARIANT_NAME": "A18U G61U",
    "ASSIGNED_LABEL": "not met"
  },
  {
    "VARIANT_NAME": "A5G U48G",
    "ASSIGNED_LABEL": "not met"
  },
  {
    "VARIANT_NAME": "A45U A57C",
    "ASSIGNED_LABEL": "not met"
  },
  {
    "VARIANT_NAME": "C27U U74C",
    "ASSIGNED_LABEL": "not met"
  },
  {
    "VARIANT_NAME": "G8U A47G",
    "ASSIGNED_LABEL": "not met"
  }
]

Query: Quick check: does A20G A45G have self-cleavage greater than or equal to 0.5?
Response: met
